Assay: ATG_VDRE_CIS: Attagene CIS-FACTORIAL HepG2 Assay for human Vitamin D Receptor Element (VDRE) (AID 2282968)
Settings: HepG2 VDRE cis-reporter transcription, actives raise or lower the signal
Activity calls are given as the source filed them. Rule for the calls: active = hit-call score of the fitted dose curve at least 0.9, where 1 is the maximum; inactive = score below 0.9.
The reply should be one of these categories: 1 (yes) for active, 0 (no) for inactive

Before answering, review these 3 worked examples.
MOLECULE	CATEGORY_LABEL
CCN(CCC#N)c1ccc(N=Nc2ccc([N+](=O)[O-])cc2)cc1	0 (no)
CCOc1ccc(NC(=O)CC(C)=O)cc1	0 (no)
Nc1c(Cl)cc(Cl)cc1[N+](=O)[O-]	0 (no)

Incoming: # fetch the recorded call for CC(=O)NCCO here
Outgoing: 0 (no)

Incoming: How about C[C@H]1O[C@@H](O[C@H]2[C@@H](O)C[C@H](O[C@H]3[C@@H](O)C[C@H](O[C@H]4CC[C@@]5(C)[C@H](CC[C@@H]6[C@@H]5C[C@@H](O)[C@]5(C)[C@@H](C7=CC(=O)OC7)CC[C@]65O)C4)O[C@@H]3C)O[C@@H]2C)C[C@H](O)[C@@H]1O ?
Outgoing: 1 (yes)

* * *

Assay: BSK_3C_Proliferation: Cell Proliferation Assessment in the BioMAP Diversity Plus: 3C Assay (AID 2283006)
Conditions: primary human endothelial cells (HUVEC)
The source made the active and inactive calls. The calls were made as follows: active = hit-call score of the fitted dose curve at least 0.9, where 1 is the maximum; inactive = score below 0.9.
The reply should be one of these categories: label 1 (active), label 0 (inactive)

Before answering, review these 5 worked examples.
COMPOUND	CATEGORY_LABEL
CS(=O)(=O)c1ccc(C2=C(c3ccccc3)C(=O)OC2)cc1	label 0
c1ccc2cc(Nc3ccc(Nc4ccc5ccccc5c4)cc3)ccc2c1	label 0
O=C(Nc1ccc2c(O)c(N=Nc3ccc(N=Nc4ccc(S(=O)(=O)O)cc4)cc3)c(S(=O)(=O)O)cc2c1)c1ccccc1	label 0
C[C@@H]1CCN(C(=O)[C@H](CCCN=C(N)N)NS(=O)(=O)c2cccc3c2NC[C@H](C)C3)[C@@H](C(=O)O)C1	label 0
CS(=O)(=O)OCCCCOS(C)(=O)=O	label 0

Incoming: # fetch the recorded call for C=C(C)[C@H]1CC=C(C)C(=O)C1 here
Outgoing: label 0

Incoming: How about C=C(C)C(=O)OCCOCCOCCOCCOC(=O)C(=C)C ?
Outgoing: label 0

Incoming: How about C=CC(C)(O)CCC=C(C)C (stereo not given) ?
Outgoing: label 0

* * *

Read-out: Secreted IgG (sIgG), gene 3500
Experiment: BSK_BT_sIgG: BioMAP Diversity Plus: BT Assay for Secreted IgG (sIgG) Biomarker Activity (AID 2284226)
Conditions: primary human B cells with PBMC
The source made the active and inactive calls. How the source made its calls: active means hit-call score of the fitted dose curve at least 0.9, where 1 is the maximum; inactive means score below 0.9.
The reply should be one of these categories: active, inactive

Before answering, review these 3 worked examples.
COMPOUND	CATEGORY_LABEL
C1=CC2C3C=CC(C3)C2C1 (stereo unspecified)	inactive
CC1(C)C2=CCCC(C)(C)[C@]23CC[C@H]1C3	active
CCC(C)c1cc([N+](=O)[O-])cc([N+](=O)[O-])c1OC(=O)OC(C)C (stereo unspecified)	active

Incoming: # fetch the recorded call for C=C(C)[C@H]1CC=C(C)C(=O)C1 here
Outgoing: inactive

Incoming: How about Oc1c(Cl)cc(Cl)c(Cl)c1Cc1c(O)c(Cl)cc(Cl)c1Cl ?
Outgoing: active

Incoming: How about CSCCC=O ?
Outgoing: inactive

* * *

Experiment: ATG_CRE_CIS: Attagene CIS-FACTORIAL HepG2 Assay for human cAMP Responsive Element (CRE) binding protein 3 (AID 2282926)
Conditions: HepG2 CRE cis-reporter, Attagene multiplexed mRNA; actives raise or lower the signal
Activity calls are given as the source filed them. How the source made its calls: active means hit-call score of the fitted dose curve at least 0.9, where 1 is the maximum; inactive means score below 0.9.
The reply should be one of these categories: true (active), false (inactive)

Before answering, review these 3 worked examples.
MOLECULE	CATEGORY_LABEL
Cc1ccc(S(=O)(=O)Oc2ccc(N=Nc3ccc(-c4ccc(N=Nc5c(O)ccc6cc(S(=O)(=O)O)cc(S(=O)(=O)O)c56)c(C)c4)cc3C)cc2)cc1	false
CCCC(C)C(O)CC (stereo not given)	false
CC(=O)Nc1ccc(C(=O)CCl)cc1	true

Incoming: # fetch the recorded call for C[C@H]1O[C@@H](O[C@H]2[C@@H](O)C[C@H](O[C@H]3[C@@H](O)C[C@H](O[C@H]4CC[C@@]5(C)[C@H](CC[C@@H]6[C@@H]5C[C@@H](O)[C@]5(C)[C@@H](C7=CC(=O)OC7)CC[C@]65O)C4)O[C@@H]3C)O[C@@H]2C)C[C@H](O)[C@@H]1O here
Outgoing: true

Incoming: How about CC(C)=CCCC(C)CCOC=O (stereo not given) ?
Outgoing: false

* * *

Assay: CCTE_Simmons_CellTiterGLO_HEK293T: Viability Assessment in CCTE's Assays for Thyroperoxidase (TPO) Inhibition, Simmons Lab (AID 2283665)
Inconclusive results are not listed. Active and inactive are the calls of the source. Rule for the calls: active = hit-call score of the fitted dose curve at least 0.9, where 1 is the maximum; inconclusive = response in the unintended direction; inactive = score below 0.9.
The reply should be one of these categories: t = active, f = inactive

Before answering, review these 3 worked examples.
STRUCTURE_STRING	CATEGORY_LABEL
CS(=O)(=O)OCCCCOS(C)(=O)=O	f
CN(C)c1cccc(O)c1	f
Nc1ccc2cc(S(=O)(=O)O)cc(O)c2c1N=Nc1ccccc1C(F)(F)F	t

Lab note: next compound to report on.
Incoming: # fetch the recorded call for CCOC(=O)c1ccc(N)cc1 here
Outgoing: t

* * *

Test system: IYD (gene 389434)
Test: CCTE_GLTED_hIYD: CCTE's human Iodotyrosine Deiodinase (xIYD) Inhibition Assay, Great Lakes Toxicology and Ecology Division (GLTED) Lab (AID 2284317);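 note: cell-free human IYD enzyme made in baculovirus insect cells; iodide freed from monoiodotyrosine measured by cerium arsenite color change at 420 nm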
The source made the active and inactive calls. How the source made its calls: active means hit-call score of the fitted dose curve at least 0.9, where 1 is the maximum; inconclusive means response in the unintended direction; inactive means score below 0.9.
The reply should be one of these categories: 1 for active, -1 for inactive

Before answering, review these 5 worked examples.
COMPOUND	CATEGORY_LABEL
Nc1ccc(N)c2c1C(=O)c1ccccc1C2=O	-1
COc1ccc(N=Nc2cc(C)c(N=Nc3ccc(S(=O)(=O)O)cc3)cc2OC)cc1	-1
CCCCC(CC)COC(=O)c1ccc(O)cc1 (stereo unspecified)	1
CC(C)CCCCCCCCCCCCCCC(=O)O	1
O=C(Nc1ccc2c(O)c(N=Nc3ccc(N=Nc4ccc(S(=O)(=O)O)cc4)cc3)c(S(=O)(=O)O)cc2c1)c1ccccc1	1

Incoming: # fetch the recorded call for CCCCCCCCC=CCCCCCCCC1=NCCN1CCO here
Outgoing: 1

* * *

Assay: ATG_ISRE_CIS: Attagene CIS-FACTORIAL HepG2 Assay for human Interferon Regulatory Factor 1 (IRF1) binding to an Interferon-Stimulated Response Element (ISRE) (AID 2282948)
Conditions: HepG2 ISRE cis-reporter (Attagene), mRNA transcription readout; actives raise or lower the signal
Activity calls are given as the source filed them. How the source made its calls: active means hit-call score of the fitted dose curve at least 0.9, where 1 is the maximum; inactive means score below 0.9.
The reply should be one of these categories: label 1 = active, label 0 = inactive

MOLECULE	CATEGORY_LABEL
COC(=O)c1cccnc1	label 0

Lab note: next molecule to report on.
Incoming: # fetch the recorded call for C=CC(C)(O)CCC=C(C)C (stereo unspecified) here
Outgoing: label 0

* * *

Target: Oxysterols receptor LXR-alpha (Homo sapiens) (UniProt Q13133)
Sequence (Q13133 whole entry, looked up): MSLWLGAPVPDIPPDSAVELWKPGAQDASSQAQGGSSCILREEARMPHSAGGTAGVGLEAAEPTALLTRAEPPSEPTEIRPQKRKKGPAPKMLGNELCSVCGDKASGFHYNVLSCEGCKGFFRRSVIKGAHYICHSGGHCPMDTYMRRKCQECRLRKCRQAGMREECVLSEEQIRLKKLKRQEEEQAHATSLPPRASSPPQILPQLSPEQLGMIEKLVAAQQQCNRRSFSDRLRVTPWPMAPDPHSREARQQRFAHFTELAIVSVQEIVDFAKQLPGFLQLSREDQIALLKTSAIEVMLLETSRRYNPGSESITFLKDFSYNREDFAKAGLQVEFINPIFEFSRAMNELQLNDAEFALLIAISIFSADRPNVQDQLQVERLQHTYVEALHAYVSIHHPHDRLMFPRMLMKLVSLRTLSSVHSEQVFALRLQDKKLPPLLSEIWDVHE
Assay: ATG_LXRa_TRANS: Attagene TRANS-FACTORIAL HepG2 Assay for human Liver X Receptor alpha (LXRa) (AID 2282980)
Conditions: HepG2 Attagene TRANS reporter, LXRa transactivation
Inconclusive results are not listed. Active and inactive are the calls of the source. Rule for the calls: active = hit-call score of the fitted dose curve at least 0.9, where 1 is the maximum; inconclusive = response in the unintended direction; inactive = score below 0.9.
The reply should be one of these categories: TRUE for active, FALSE for inactive

Before answering, review these 3 worked examples.
COMPOUND	CATEGORY_LABEL
C#CC(C)N(C)C(=O)Nc1ccc(Cl)cc1 (centres undefined)	FALSE
CCCCCCCCCCCC(=O)OC[C@@H](O)[C@H]1OC[C@H](O)[C@H]1O	FALSE
CCCCCCC(CO)CCCC (centres undefined)	FALSE

Lab note: next compound to report on.
Incoming: # fetch the recorded call for CC1C2CC(CC2C2CCCC(O)C2)C1(C)C (centres undefined) here
Outgoing: TRUE

* * *

Target: Nuclear receptor subfamily 1 group I member 2 (Homo sapiens) (UniProt O75469)
Sequence (O75469 whole entry, looked up): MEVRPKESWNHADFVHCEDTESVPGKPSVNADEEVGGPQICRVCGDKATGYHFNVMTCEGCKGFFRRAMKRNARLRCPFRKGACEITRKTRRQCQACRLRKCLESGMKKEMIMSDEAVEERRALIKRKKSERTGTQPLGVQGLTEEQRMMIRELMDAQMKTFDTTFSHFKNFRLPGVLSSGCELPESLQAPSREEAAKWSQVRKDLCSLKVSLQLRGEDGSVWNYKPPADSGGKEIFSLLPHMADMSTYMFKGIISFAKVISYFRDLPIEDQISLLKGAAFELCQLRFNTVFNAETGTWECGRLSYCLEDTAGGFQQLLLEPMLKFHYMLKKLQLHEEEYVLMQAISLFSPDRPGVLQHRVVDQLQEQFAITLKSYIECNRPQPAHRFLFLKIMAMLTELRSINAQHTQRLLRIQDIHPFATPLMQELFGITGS
Experiment: ATG_PXR_TRANS: Attagene TRANS-FACTORIAL HepG2 Assay for human Pregnane X Receptor (PXR) (AID 2283008)
Records with an inconclusive call do not appear. Calls of active or inactive are those of the source. How the source made its calls: active means hit-call score of the fitted dose curve at least 0.9, where 1 is the maximum; inconclusive means response in the unintended direction; inactive means score below 0.9.
The reply should be one of these categories: active, inactive

Before answering, review these 6 worked examples.
MOLECULE	TESTED_ON	CATEGORY_LABEL
CC=Cc1ccc(OC)c(OC)c1	Nuclear receptor subfamily 1 group I member 2 (Homo sapiens) (UniProt O75469)	active
Clc1ccc(C(c2ccccc2Cl)C(Cl)Cl)cc1 (centres undefined)	Nuclear receptor subfamily 1 group I member 2 (Homo sapiens) (UniProt O75469)	active
CC(=O)CC(=O)Nc1ccccc1	Nuclear receptor subfamily 1 group I member 2 (Homo sapiens) (UniProt O75469)	inactive
COc1cccc(OC)c1O	Nuclear receptor subfamily 1 group I member 2 (Homo sapiens) (UniProt O75469)	inactive
COCCc1ccc(OCC(O)CNC(C)C)cc1 (centres undefined)	Nuclear receptor subfamily 1 group I member 2 (Homo sapiens) (UniProt O75469)	inactive
CCC(Cl)C(Cl)C(Cl)CC(Cl)C(Cl)C(C)Cl (centres undefined)	Nuclear receptor subfamily 1 group I member 2 (Homo sapiens) (UniProt O75469)	active

Incoming: # fetch the recorded call for Cc1[nH]c(=O)c(C#N)cc1-c1ccncc1 here
Outgoing: inactive

Incoming: How about Cc1c(C2(c3cc(Br)c(O)c(Br)c3C)OS(=O)(=O)c3ccccc32)cc(Br)c(O)c1Br ?
Outgoing: active

Incoming: How about CC1=NN(c2ccc(S(=O)(=O)O)cc2)C(=O)C1 ?
Outgoing: inactive

Entry source: PubChem BioAssay (EPA / NIEHS)
